Each recorded value in this set is attributed to ChEMBL document CHEMBL1201862.

system: 786-0; test: NCI tumour cell line growth inhibition, 48 h
The source made the active and inactive calls. Rule as the data show it: active = GI50 up to about 1.1 µM and inactive = higher.
Reported property: GI50

### Prompt What value of measured GI50 is listed for Cc1c(-c2ccccc2)oc(=O)c2ccccc12 ?
### Response 24.2 µM (inactive)

Further cases:
### Prompt What value of measured GI50 is listed for Cn1c(C2CCCc3c2c2ccccc2n3C)cc2ccccc21 (centres undefined) ?
### Response > 318 µM (inactive)

### Prompt What value of measured GI50 is listed for CO[C@H](C)[C@](O)(C(=O)OCC1=CCN2CC[C@@H](O)[C@H]12)C(C)C ?
### Response > 100 µM (inactive)

### Prompt What value of measured GI50 is listed for CC1=C(C(=O)NNC(=O)Cc2ccccc2)CC(C(=O)NNC(=O)Cc2ccccc2)=C(C)N1 ?
### Response > 100 µM (inactive)

### Prompt What value of measured GI50 is listed for CCCc1c2c3ccccc3nc-2nc2ccccn12 ?
### Response 28.4 µM (inactive)

### Prompt What value of measured GI50 is listed for COC(=O)C(Cc1ccccc1)NC(=O)CSc1nnc(COc2ccc(Cl)cc2)n1-c1ccccc1 (centres undefined) ?
### Response 16.3 µM (inactive)

### Prompt What value of measured GI50 is listed for C#Cc1ccccc1N1C(=O)C=CC1=O ?
### Response > 100 µM (inactive)

### Prompt What value of measured GI50 is listed for COc1ccc(/C=C2\C(=O)N(C3OC(COC(C)=O)C(OC(C)=O)C(OC(C)=O)C3OC(C)=O)c3ccccc3N=C2N)cc1 (centres undefined) ?
### Response 17.5 µM (inactive)

### Prompt What value of measured GI50 is listed for Clc1cc(-c2csc(Cl)c2)cs1 ?
### Response > 100 µM (inactive)

====

system: SK-MEL-2; assay: NCI tumour cell line growth inhibition, 48 h
The source made the active and inactive calls. Rule as the data show it: active = GI50 up to about 1.1 µM and inactive = higher.
Reported property: GI50

### Prompt What measured GI50 is associated with O=C(O)C1CCC(=O)N1C(=O)C(Cl)c1ccccc1 (configuration not stated) on SK-MEL-2?
### Response > 100 µM (inactive)

### Prompt What measured GI50 is associated with N=C(N)N/N=C/c1c(-c2ccc([N+](=O)[O-])cc2)nc2n1CCS2 on SK-MEL-2?
### Response 7.35 µM (inactive)

### Prompt What measured GI50 is associated with CC(N)Cc1cccc(C(F)(F)F)c1 (configuration not stated) on SK-MEL-2?
### Response > 100 µM (inactive)

### Prompt What measured GI50 is associated with COc1ccc(N2C(=O)C3c4[nH]c5ccc(C)cc5c4C4CCC(C(C)C)CC4C3C2=O)cc1 (configuration not stated) on SK-MEL-2?
### Response > 100 µM (inactive)

### Prompt What measured GI50 is associated with COC(c1ccsc1)C(C#N)(C#N)/N=C/c1ccsc1 (configuration not stated) on SK-MEL-2?
### Response 19 µM (inactive)

### Prompt What measured GI50 is associated with COc1ccc2c(c1)CCN1CCCc3ccc(OC)cc3C21 (configuration not stated) on SK-MEL-2?
### Response 52.1 µM (inactive)

### Prompt What measured GI50 is associated with CC(C)C(=O)N[C@@H](C)C(=O)N(Cc1ccc2ccccc2c1)N=O on SK-MEL-2?
### Response 98.9 µM (inactive)
